Tested on: E. coli ATCC25922
Format: cell-based, Escherichia coli
Conditions: ATCC25922, 20 h
Peptide text beside a SMILES is read from it.
Measured parameter: FICi

Here is how some molecules turned out for FICi.
Molecule	FICi
CC[C@H](C)[C@H](NC(=O)[C@@H](NC(=O)[C@H](CCCCN)NC(=O)[C@H](CCC(N)=O)NC(=O)[C@@H](NC(=O)[C@H](C)NC(=O)[C@H](CCCCN)NC(=O)[C@H](CCCCN)NC(=O)[C@H](CC(C)C)NC(=O)[C@H](CCCNC(=N)N)NC(=O)[C@H](Cc1ccccc1)NC(=O)[C@@H](N)C(C)C)[C@@H](C)CC)C(C)C)C(N)=O [peptide 14] (H-VFRLKKAIQKVI-NH2)	0.0313
CC[C@H](C)[C@H](NC(=O)[C@H](Cc1c[nH]c2ccccc12)NC(=O)[C@H](CCCCN)NC(=O)[C@H](CCCCN)NC(=O)[C@H](CC(C)C)NC(=O)[C@H](CCCNC(=N)N)NC(=O)[C@H](Cc1ccccc1)NC(=O)[C@@H](N)C(C)C)C(=O)N[C@@H](CCC(N)=O)C(=O)N[C@@H](CCCCN)C(=O)N[C@H](C(=O)N[C@@H](C)C(N)=O)C(C)C [peptide 19] (H-VFRLKKWIQKVA-NH2)	0.0313
CC[C@H](C)[C@H](NC(=O)[C@@H](NC(=O)[C@H](CCCCN)NC(=O)[C@H](CCC(N)=O)NC(=O)[C@@H](NC(=O)[C@H](Cc1c[nH]c2ccccc12)NC(=O)[C@H](CCCCN)NC(=O)[C@H](CCCCN)NC(=O)[C@H](CC(C)C)NC(=O)[C@H](CCCNC(=N)N)NC(=O)[C@H](Cc1ccccc1)NC(=O)[C@@H](N)C(C)C)[C@@H](C)CC)C(C)C)C(N)=O [peptide 6] (H-VFRLKKWIQKVI-NH2)	0.0469

Let us examine a further case.
I'm curious: which FICi was measured for CC[C@H](C)[C@H](NC(=O)[C@@H](NC(=O)[C@H](CCCCN)NC(=O)[C@H](CCC(N)=O)NC(=O)[C@@H](NC(=O)[C@H](Cc1c[nH]c2ccccc12)NC(=O)[C@H](CCCCN)NC(=O)[C@H](CCCCN)NC(=O)[C@H](CC(C)C)NC(=O)[C@H](C)NC(=O)[C@H](Cc1ccccc1)NC(=O)[C@@H](N)C(C)C)[C@@H](C)CC)C(C)C)C(N)=O [peptide 10] (H-VFALKKWIQKVI-NH2) tested on E. coli ATCC25922?
0.0313

These measurements were taken from paper PMC8037310.
